Data credit: patent US11771086B2

Tested on: Plutella xylostella
Method notes: Reference Test Example 1 Pest control test of Plutella xylostella (foliar treatment, single agent)
Assay type: in vivo
Design: concentration or dose not given beside the values
Measurement conditions: foliar treatment, single agent
Property: Plutella xylostella (Reference Test Example 1), mortality of larvae; scope: individual compounds
Assay readout: Plutella xylostella (Reference Test Example 1), mortality of larvae

>  <Mol smiles>
O=C(N=c1ccccn1Cc1ccc(F)nc1)C(F)(F)C(F)(F)F

>  <Reported>
100%

$$$$
>  <Mol smiles>
O=C(N=c1ccccn1Cc1ccc(Br)nc1)C(F)(F)C(F)(F)F

>  <Reported>
100%

$$$$
>  <Mol smiles>
O=C(N=c1ccccn1Cc1cnc(Cl)nc1)C(F)F

>  <Reported>
80%

$$$$
>  <Mol smiles>
O=C(N=c1ccccn1Cc1ccc(Cl)nc1)C(F)F

>  <Reported>
100%

$$$$
>  <Mol smiles>
Fc1cc(Cn2ccccc2=NC(=S)C(F)(F)F)cnc1Cl

>  <Reported>
100%

$$$$
>  <Mol smiles>
O=C(N=c1ccc(Cl)cn1Cc1cnc(Cl)s1)C(F)(F)F

>  <Reported>
100%

$$$$
>  <Mol smiles>
O=C(N=c1ccccn1Cc1ccc(F)nc1)C(F)(F)F

>  <Reported>
100%

$$$$
>  <Mol smiles>
O=C(N=c1ccccn1Cc1ccc(Cl)nc1)C(F)(F)C(F)(F)F

>  <Reported>
100%

$$$$
>  <Mol smiles>
FC(F)(Cl)C(=S)N=c1ccccn1Cc1ccc(Cl)nc1

>  <Reported>
100%

$$$$
>  <Mol smiles>
O=C(N=c1ccccn1Cc1ccc(Br)nc1)C(F)F

>  <Reported>
100%

$$$$
>  <Mol smiles>
O=C(N=c1ccccn1Cc1ccc(Br)nc1)C(F)(F)Cl

>  <Reported>
100%

$$$$
>  <Mol smiles>
O=C(N=c1ccccn1Cc1cnc(Cl)nc1)C(F)(F)Cl

>  <Reported>
90%

$$$$
>  <Mol smiles>
O=C(N=c1ccccn1Cc1cnc(Cl)c(F)c1)C(F)(F)Cl

>  <Reported>
100%

$$$$
>  <Mol smiles>
O=C(N=c1ccccn1Cc1cnc(Cl)c(F)c1)C(F)F

>  <Reported>
100%

$$$$
>  <Mol smiles>
Fc1ccc(Cn2ccccc2=NC(=S)C(F)(F)F)cn1

>  <Reported>
55%

$$$$
>  <Mol smiles>
O=C(N=c1ccccn1Cc1ccc(Cl)nc1)C(Cl)(Cl)Cl

>  <Reported>
100%

$$$$
>  <Mol smiles>
O=C(N=c1ccccn1Cc1ccc(Br)nc1)C(F)(F)F

>  <Reported>
100%

$$$$
>  <Mol smiles>
FC(F)C(=S)N=c1ccccn1Cc1ccc(Cl)nc1

>  <Reported>
80%

$$$$
>  <Mol smiles>
FC(F)(F)C(=S)/N=c1\ccccn1Cc1ccc(Cl)nc1

>  <Reported>
100%

$$$$
